This document collects IC50 values reported for modified SphK1 (Homo sapiens, UniProt Q9NYA1).

Sample answers from the record:
CN(C)C1CCN(c2nc(-c3ccc4c(c3)C(C)(C)CCC4(C)C)cs2)CC1 :: < 100 nM
CC1(C)CCc2cc(-c3csc(N4CCC(NCCO)CC4)n3)ccc21 :: 100 to 1000 nM

Give modified SphK1 (Homo sapiens, UniProt Q9NYA1) IC50 for CC1(C)CCC(C)(C)c2cc(-c3csc(N4CCCC(C(=O)NCCO)C4)n3)ccc21 (stereo not drawn)
100 to 1000 nM

* * *

Molecular target: modified SphK1 (Homo sapiens)
Sequence (Q9NYA1 whole entry): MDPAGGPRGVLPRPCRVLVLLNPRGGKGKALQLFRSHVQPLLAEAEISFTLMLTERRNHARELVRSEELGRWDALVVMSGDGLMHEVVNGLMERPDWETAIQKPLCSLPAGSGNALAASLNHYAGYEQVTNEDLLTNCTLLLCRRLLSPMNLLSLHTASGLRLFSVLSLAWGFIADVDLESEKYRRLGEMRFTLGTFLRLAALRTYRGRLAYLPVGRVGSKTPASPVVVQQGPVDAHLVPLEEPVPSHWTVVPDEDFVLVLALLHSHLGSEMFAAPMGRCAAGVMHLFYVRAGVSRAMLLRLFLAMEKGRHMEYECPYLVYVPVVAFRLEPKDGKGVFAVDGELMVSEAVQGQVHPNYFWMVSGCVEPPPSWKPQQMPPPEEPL
Assay: SphK1 biochemical kinase assay (384-well flashplate)
Details: IC50 ranges; 5 nM modified SphK1, 1 μM ATP, 30° C., 120 min; read-out: SphK1 Inhibition IC50
pIC50: −log10 of the molar value.
parameter: pIC50

Sample answers from the record:
CC1(C)CCC(C)(C)c2cc(-c3csc(N4CC[C@H](N)C4)n3)ccc21 :: 6.00 to 7.00
CC1(C)CCc2cc(-c3csc(N4CCC(NCCCO)CC4)n3)ccc21 :: 6.00 to 7.00
CN1CCN(C2CCN(c3nc(-c4ccc5c(c4)C(C)(C)CCC5(C)C)cs3)CC2)CC1 :: 6.00 to 7.00
CC1(C)CCC(C)(C)c2cc(-c3csc(N4CCC(N(CCO)CCO)CC4)n3)ccc21 :: 6.00 to 7.00
CC1(C)CCC(C)(C)c2cc(-c3csc(N4CCC(N5CCOCC5)CC4)n3)ccc21 :: < 6.00

Given the molecule CC1(C)CCC(C)(C)c2cc(-c3ncc(C4CCNCC4)o3)ccc21 , what is its reported pIC50?
< 6.00

Similarly, CC1(C)CCC(C)(C)c2cc(-c3csc(N4CC[C@@H](N)C4)n3)ccc21 ?
6.00 to 7.00

Similarly, CC1(C)CCCc2cc(-c3csc(N4CCN(CCCCO)CC4)n3)ccc21 ?
6.00 to 7.00

Similarly, CC1(C)CCC(C)(C)c2cc(-c3csc(N4CCC5(CCNCC5)CC4)n3)ccc21 ?
6.00 to 7.00

Similarly, CC1(C)CCC(C)(C)c2cc(-c3csc(C4CCC(N)CC4)n3)ccc21 (stereo not shown) ?
6.00 to 7.00
